Taken from ChEMBL document CHEMBL4052823.

- System: Enterococcus faecium
- protocol-details: Antibacterial activity against glycopeptide-resistant Enterococcus faecium Efm-HS-0847 vanM after 24 hrs by broth microdilution method
- Type: functional
- measurement-context: Efm-HS-0847, 24 h
Reported MIC by item:
property-name: MIC

[[record]]
compound = "CN[C@H](CC(C)C)C(=O)N[C@H]1C(=O)N[C@@H](CC(N)=O)C(=O)N[C@H]2C(=O)N[C@H]3C(=O)N[C@H](C(=O)N[C@H](C(=O)O)c4cc(O)c(CN[C@H]5C(O)O[C@H](CO)[C@H](O)[C@@H]5O)c(O)c4-c4cc3ccc4O)[C@H](O)c3ccc(c(Cl)c3)Oc3cc2cc(c3O[C@@H]2O[C@H](CO)[C@@H](O)[C@H](O)[C@H]2O[C@H]2C[C@](C)(NCc3ccc(-c4ccc(Cl)cc4)cc3)[C@H](O)[C@H](C)O2)Oc2ccc(cc2Cl)[C@H]1O (some centres undefined)"
target_desc = "Enterococcus faecium"
observed_value = "8 µg/mL"

[[record]]
compound = "CN[C@H](CC(C)C)C(=O)N[C@H]1C(=O)N[C@@H](CC(N)=O)C(=O)N[C@H]2C(=O)N[C@H]3C(=O)N[C@H](C(=O)N[C@H](C(=O)O)c4cc(O)cc(O)c4-c4cc3ccc4O)[C@H](O)c3ccc(c(Cl)c3)Oc3cc2cc(c3O[C@@H]2O[C@H](CO)[C@@H](O)[C@H](O)[C@H]2O[C@H]2C[C@](C)(N)[C@H](O)[C@H](C)O2)Oc2ccc(cc2Cl)[C@H]1O [VANCOMYCIN]"
target_desc = "Enterococcus faecium"
observed_value = "> 128 µg/mL"

[[record]]
compound = "CCCCCCCCCCN[C@@]1(C)C[C@H](O[C@H]2[C@H](Oc3c4cc5cc3Oc3ccc(cc3Cl)[C@@H](O)[C@@H](NC(=O)[C@@H](CC(C)C)NC)C(=O)N[C@@H](CC(N)=O)C(=O)N[C@H]5C(=O)N[C@H]3C(=O)N[C@H](C(=O)N[C@H](C(=O)O)c5cc(O)c(CN[C@H]6C(O)O[C@H](CO)[C@H](O)[C@@H]6O)c(O)c5-c5cc3ccc5O)[C@H](O)c3ccc(c(Cl)c3)O4)O[C@H](CO)[C@@H](O)[C@@H]2O)O[C@@H](C)[C@H]1O (some centres undefined)"
target_desc = "Enterococcus faecium"
observed_value = "32 µg/mL"

[[record]]
compound = "CCCCCCc1ccc(CN[C@@]2(C)C[C@H](O[C@H]3[C@H](Oc4c5cc6cc4Oc4ccc(cc4Cl)[C@@H](O)[C@@H](NC(=O)[C@@H](CC(C)C)NC)C(=O)N[C@@H](CC(N)=O)C(=O)N[C@H]6C(=O)N[C@H]4C(=O)N[C@H](C(=O)N[C@H](C(=O)O)c6cc(O)c(CN[C@H]7C(O)O[C@H](CO)[C@H](O)[C@@H]7O)c(O)c6-c6cc4ccc6O)[C@H](O)c4ccc(c(Cl)c4)O5)O[C@H](CO)[C@@H](O)[C@@H]3O)O[C@@H](C)[C@H]2O)cc1 (some centres undefined)"
target_desc = "Enterococcus faecium"
observed_value = "32 µg/mL"

[[record]]
compound = "CN[C@H](CC(C)C)C(=O)N[C@H]1C(=O)N[C@@H](CC(N)=O)C(=O)N[C@H]2C(=O)N[C@H]3C(=O)N[C@H](C(=O)N[C@H](C(=O)O)c4cc(O)cc(O)c4-c4cc3ccc4O)[C@H](O[C@H]3C[C@](C)(N)[C@@H](O)[C@H](C)O3)c3ccc(c(Cl)c3)Oc3cc2cc(c3O[C@@H]2O[C@H](CO)[C@@H](O)[C@H](O)[C@H]2O[C@H]2C[C@](C)(NCc3ccc(-c4ccc(Cl)cc4)cc3)[C@@H](O)[C@H](C)O2)Oc2ccc(cc2Cl)[C@H]1O [ORITAVANCIN]"
target_desc = "Enterococcus faecium"
observed_value = "1 µg/mL"

[[record]]
compound = "CCCCCCCCCCNCCN[C@@]1(C)C[C@H](O[C@H]2[C@H](Oc3c4cc5cc3Oc3ccc(cc3Cl)[C@@H](O)[C@@H](NC(=O)[C@@H](CC(C)C)NC)C(=O)N[C@@H](CC(N)=O)C(=O)N[C@H]5C(=O)N[C@H]3C(=O)N[C@H](C(=O)N[C@H](C(=O)O)c5cc(O)c(CNCP(=O)(O)O)c(O)c5-c5cc3ccc5O)[C@H](O)c3ccc(c(Cl)c3)O4)O[C@H](CO)[C@@H](O)[C@@H]2O)O[C@@H](C)[C@H]1O [TELAVANCIN]"
target_desc = "Enterococcus faecium"
observed_value = "4 µg/mL"

[[record]]
compound = "CCCCCCCCCCNCCN[C@@]1(C)C[C@H](O[C@H]2[C@H](Oc3c4cc5cc3Oc3ccc(cc3Cl)[C@@H](O)[C@@H](NC(=O)[C@@H](CC(C)C)NC)C(=O)N[C@@H](CC(N)=O)C(=O)N[C@H]5C(=O)N[C@H]3C(=O)N[C@H](C(=O)N[C@H](C(=O)O)c5cc(O)c(CN[C@H]6C(O)O[C@H](CO)[C@H](O)[C@@H]6O)c(O)c5-c5cc3ccc5O)[C@H](O)c3ccc(c(Cl)c3)O4)O[C@H](CO)[C@@H](O)[C@@H]2O)O[C@@H](C)[C@H]1O (some centres undefined)"
target_desc = "Enterococcus faecium"
observed_value = "8 µg/mL"

[[record]]
compound = "CN[C@H](CC(C)C)C(=O)N[C@H]1C(=O)N[C@@H](CC(N)=O)C(=O)N[C@H]2C(=O)N[C@H]3C(=O)N[C@H](C(=O)N[C@H](C(=O)NCCCN(C)C)c4cc(O)c(CNCCCNC(=O)[C@H](O)[C@@H](O)[C@H](O)[C@H](O)CO)c(O)c4-c4cc3ccc4O)[C@H](O)c3ccc(c(Cl)c3)Oc3cc2cc(c3O[C@@H]2O[C@H](CO)[C@@H](O)[C@H](O)[C@H]2O[C@H]2C[C@](C)(NCc3ccc(-c4ccc(Cl)cc4)cc3)[C@H](O)[C@H](C)O2)Oc2ccc(cc2Cl)[C@H]1O"
target_desc = "Enterococcus faecium"
observed_value = "2 µg/mL"

[[record]]
compound = "CN[C@H](CC(C)C)C(=O)N[C@H]1C(=O)N[C@@H](CC(N)=O)C(=O)N[C@H]2C(=O)N[C@H]3C(=O)N[C@H](C(=O)N[C@H](C(=O)O)c4cc(O)c(CNCCO[C@H]5O[C@H](CO)[C@@H](O)[C@H](O)[C@@H]5O)c(O)c4-c4cc3ccc4O)[C@H](O)c3ccc(c(Cl)c3)Oc3cc2cc(c3O[C@@H]2O[C@H](CO)[C@@H](O)[C@H](O)[C@H]2O[C@H]2C[C@](C)(NCc3ccc(-c4ccc(Cl)cc4)cc3)[C@H](O)[C@H](C)O2)Oc2ccc(cc2Cl)[C@H]1O"
target_desc = "Enterococcus faecium"
observed_value = "2 µg/mL"

